// data source = patent US6635642B1

system_tested: purified recombinant human PARP (Homo sapiens, UniProt P09874)
Construct: purchased Trevigen (Gaithersburg, Md.)
Sequence (P09874 whole entry): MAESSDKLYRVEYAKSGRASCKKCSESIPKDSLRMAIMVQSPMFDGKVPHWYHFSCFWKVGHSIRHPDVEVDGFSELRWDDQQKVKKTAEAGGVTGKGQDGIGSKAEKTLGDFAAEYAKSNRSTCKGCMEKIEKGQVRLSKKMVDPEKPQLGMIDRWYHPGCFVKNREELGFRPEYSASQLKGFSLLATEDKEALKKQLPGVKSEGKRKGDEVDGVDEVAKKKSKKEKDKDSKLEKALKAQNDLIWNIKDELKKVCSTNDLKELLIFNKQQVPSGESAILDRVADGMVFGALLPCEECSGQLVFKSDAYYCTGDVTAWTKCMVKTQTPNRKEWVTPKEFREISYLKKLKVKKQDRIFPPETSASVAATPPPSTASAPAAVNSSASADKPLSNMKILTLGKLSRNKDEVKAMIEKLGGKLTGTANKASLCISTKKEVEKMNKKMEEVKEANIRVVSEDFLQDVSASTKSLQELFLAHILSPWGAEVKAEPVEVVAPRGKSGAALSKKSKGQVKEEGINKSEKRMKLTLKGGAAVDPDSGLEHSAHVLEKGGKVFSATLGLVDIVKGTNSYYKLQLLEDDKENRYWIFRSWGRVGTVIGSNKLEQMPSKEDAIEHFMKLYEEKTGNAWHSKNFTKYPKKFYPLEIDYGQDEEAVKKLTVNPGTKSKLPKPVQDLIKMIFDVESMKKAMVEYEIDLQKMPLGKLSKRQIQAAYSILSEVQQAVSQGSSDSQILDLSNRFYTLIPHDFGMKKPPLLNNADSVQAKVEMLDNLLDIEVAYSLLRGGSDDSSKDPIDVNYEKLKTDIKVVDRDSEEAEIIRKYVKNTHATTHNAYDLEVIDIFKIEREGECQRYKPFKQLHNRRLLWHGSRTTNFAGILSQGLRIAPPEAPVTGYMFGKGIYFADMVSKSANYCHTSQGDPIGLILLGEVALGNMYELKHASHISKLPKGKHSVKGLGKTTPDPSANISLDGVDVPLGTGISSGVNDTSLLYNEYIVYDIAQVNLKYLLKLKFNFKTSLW
assay_remarks: PARP enzyme assay ([3H]NAD incorporation, scintillation counting)
Assay type: biochemical
condition_details: PARP inhibition; unit μM; read-out: Approximate IC50's
Listing of entries alongside the reported IC50.
A bare number is not enough; add the unit after it.

Examples with answers:
| smiles_data | IC50 |
| --- | --- |
| O=c1[nH]c2cc(F)ccc2c2ccccc12 | 0.2 µM |
| Nc1ccc2c(c1)[nH]c(=O)c1ccccc12 | 4 µM |
| O=c1[nH]c2ccc([N+](=O)[O-])cc2c2ccccc12 | 0.9 µM |
| O=c1[nH]c2cc3ccccc3cc2c2ccccc12 | 100 µM |
| O=c1[nH]c2ccccc2c2ccccc12 | 5.2 µM |
| O=c1[nH]c2ccc(Br)cc2c2ccccc12 | 1.1 µM |

Query: Which IC50 is listed for O=c1[nH]c2ccc(Cl)cc2c2ccccc12 ?
Reply: 0.7 µM

====

system_tested: purified recombinant human PARP (Homo sapiens)
Construct: purchased Trevigen (Gaithersburg, Md.)
assay_remarks: PARP enzyme assay ([3H]NAD incorporation, scintillation counting)
Assay type: biochemical
condition_details: PARP inhibition; unit inferred; read-out: Approximate IC50's
Description: The reaction was initiated by incubating the mixture at 25° C. After 15 minutes' incubation, the reaction was terminated by adding 500 microliters of ice cold 20% (w/v) trichloroacetic acid. The precipitate formed was transferred onto a glass fiber filter (Packard Unifilter-GF/B) and washed three times with ethanol. After the filter was dried, the radioactivity was determined by scintillation counting.
Catalogue of pIC50 readings, one per entry.
The value called pIC50 is obtained by taking minus log10 of the concentration in mol/L.

# example entries with known answers
| compound | pIC50 |
| --- | --- |
| O=C1NCC(c2ccccc2)Oc2ccccc21 (stereo not drawn) | 5.72 |
| O=c1[nH]cc(Br)c2c(O)cccc12 | 6.22 |

Moving on to another compound below.
Query: Request the reported pIC50 associated with CN(C)c1ccc(-c2n[nH]c(=O)c3ccccc23)cc1[N+](=O)[O-]
Reply: 6.17

====

system_tested: purified recombinant human PARP (Homo sapiens, UniProt P09874)
Construct: purchased Trevigen (Gaithersburg, Md.)
assay_remarks: PARP enzyme assay ([3H]NAD incorporation, scintillation counting)
Format: biochemical
condition_details: PARP inhibition; unit given as uM; read-out: Approximate IC50's
quantity: IC50
# do not omit the unit; it follows the number

Query: Report IC50 for O=c1[nH]c(-c2ccccc2)cc2ccccc12 tested on purified recombinant human PARP (Homo sapiens, UniProt P09874).
Reply: 1.3 µM

Query: Next up: O=c1[nH]ccc2c([N+](=O)[O-])cccc12
Reply: 3.4 µM

Query: Here is the next compound: O=C1NCC([N+](=O)[O-])c2ccccc21 (stereo not shown)
Reply: 1.6 µM

Query: Request: NC(=O)c1cccc2cccc(C(=O)O)c12 [drawing 17]
Reply: 0.25 µM

====

system_tested: purified recombinant human PARP (Homo sapiens, UniProt P09874)
Construct: purchased Trevigen (Gaithersburg, Md.)
assay_remarks: PARP enzyme assay ([3H]NAD incorporation, scintillation counting)
Type: biochemical
condition_details: PARP inhibition; unit inferred; read-out: Approximate IC50's
Catalogue of pIC50 readings, one per entry.
// pIC50: -log10(molar conc.)

Worked set:
| smiles_data | pIC50 |
| --- | --- |
| O=c1[nH]nc(-c2ccc(Cl)cc2)c2ccccc12 | 6.44 |
| O=C1NC(=O)c2ccc(S(=O)(=O)O)c3cccc1c23 | 5.40 |
| COC(=O)c1c[nH]c(=O)c2ccccc12 | 5.96 |
| O=c1[nH]c2cc([N+](=O)[O-])ccc2c2ccccc12 | 6.80 |
| CN(C)c1ccc(-c2n[nH]c(=O)c3ccccc23)cc1N | 6.66 |
| O=c1[nH]nc2c3c(cccc13)Oc1ccc([N+](=O)[O-])cc1-2 | 7.21 |

Query: // query pIC50 value for entry O=C1CNC(=O)c2cc(Cl)ccc2N1
Reply: 5.80

Query: Now the compound O=c1[nH]nc2c3c(cccc13)CCc1ccccc1-2
Reply: 6.40

Query: How about O=c1[nH]nc2c3c(cccc13)Sc1ccccc1-2 ?
Reply: 6.96

Query: Try this compound too: O=c1[nH]nc2c3c(cccc13)-c1ccc([N+](=O)[O-])cc1-2
Reply: 7.25

Query: Continue with Nc1cccc2c1[nH]c(=O)c1ccccc12
Reply: 6.12

Query: Field entry: Nc1ccc2c(c1)-c1n[nH]c(=O)c3cccc-2c13
Reply: 7.17
